target: Histone deacetylase 8 (Homo sapiens)
Sequence (Q9BY41 whole entry): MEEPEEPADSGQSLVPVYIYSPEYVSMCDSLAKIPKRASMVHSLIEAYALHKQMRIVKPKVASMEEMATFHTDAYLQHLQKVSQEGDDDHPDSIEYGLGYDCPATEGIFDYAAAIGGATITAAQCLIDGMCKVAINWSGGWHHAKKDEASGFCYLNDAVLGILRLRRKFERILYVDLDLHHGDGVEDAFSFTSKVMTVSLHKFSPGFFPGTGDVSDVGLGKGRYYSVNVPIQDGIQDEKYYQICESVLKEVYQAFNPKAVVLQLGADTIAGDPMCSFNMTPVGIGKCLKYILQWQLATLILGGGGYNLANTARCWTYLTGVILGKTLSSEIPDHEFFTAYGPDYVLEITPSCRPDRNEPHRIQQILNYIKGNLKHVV
Listed here: items and their measured IC50.
Answer with a number only, understood to be in nM.

Query the reported IC50 for Histone deacetylase 8 (Homo sapiens); item: O=C(CCCCCC(c1c[nH]c2ccc([N+](=O)[O-])cc12)c1c[nH]c2ccc([N+](=O)[O-])cc12)NO 600

* * *

Listed here: items and their measured IC50.
system: HCT-116; assay: Cytotoxicity against human HCT116 cells after 24 hrs by sulforhodamine B assay; type: functional, cell-based; settings: HCT-116, 24 h
Answer with a number only, understood to be in µM.

The examples below pair each entry with its known result.
| smiles_record | endpoint_unit | IC50 |
| --- | --- | --- |
| O=C(/C=C/c1ccc(C(c2c[nH]c3ccccc23)c2c[nH]c3ccccc23)cc1)NO | µM | 2.6 |
| O=C(CCCCCCC(c1c[nH]c2ccccc12)c1c[nH]c2ccccc12)NO | µM | 3.5 |
| O=C(CCCCCc1c[nH]c2ccccc12)NO | µM | 15 |
| O=C(CCCCCC(c1c[nH]c2ccccc12)c1c[nH]c2ccccc12)NO | µM | 0.6 |
| O=C(CCCCCC(c1c[nH]c2cccc(F)c12)c1c[nH]c2cccc(F)c12)NO | µM | 0.4 |

Could you now look at the following compound, please?
Value lookup for IC50; key = Cc1ccc2[nH]cc(C(CCCCCC(=O)NO)c3c[nH]c4ccc(C)cc34)c2c1 0.27

These measurements were taken from ChEMBL document CHEMBL1153591.
